In this section, each of the compounds is paired with its reported speed of sound.
stated.conditions: 293.15 K; 101 kPa; Liquid; Sing-around technique in a fixed-path interferometer
Report the value in m/s with no unit label.

Observe how each entry below is paired with its result.
CCCCCCO :: 1320.1
ClCCCl :: 1212.9
BrCCBr :: 1007

GET /values?readout=speed of sound&item= ClC(Cl)=C(Cl)Cl
1054

* * *

stated.conditions: 293.15 K; 101 kPa; Liquid
experimental.readout: mass density (kg/m3)
Your answer is read as kg/m3, so omit the unit and give the number.

ClC(Cl)=C(Cl)Cl [tetrachloroethene] :: 1622.74
CCCCCCO [hexan-1-ol] :: 818.856
ClCCCl [1,2-dichloroethane] :: 1252.77

Name the recorded mass density for BrCCBr [1,2-dibromoethane] .
2179.59

The reported measurements were obtained from the NIST ThermoML archive (doi:10.1007/s10765-010-0874-x).
